Literature pIC50 values, system: Prostaglandin G/H synthase 1 (Ovis aries, UniProt P05979).
target-entity: Prostaglandin G/H synthase 1 (Ovis aries, UniProt P05979)
Sequence (P05979 whole entry): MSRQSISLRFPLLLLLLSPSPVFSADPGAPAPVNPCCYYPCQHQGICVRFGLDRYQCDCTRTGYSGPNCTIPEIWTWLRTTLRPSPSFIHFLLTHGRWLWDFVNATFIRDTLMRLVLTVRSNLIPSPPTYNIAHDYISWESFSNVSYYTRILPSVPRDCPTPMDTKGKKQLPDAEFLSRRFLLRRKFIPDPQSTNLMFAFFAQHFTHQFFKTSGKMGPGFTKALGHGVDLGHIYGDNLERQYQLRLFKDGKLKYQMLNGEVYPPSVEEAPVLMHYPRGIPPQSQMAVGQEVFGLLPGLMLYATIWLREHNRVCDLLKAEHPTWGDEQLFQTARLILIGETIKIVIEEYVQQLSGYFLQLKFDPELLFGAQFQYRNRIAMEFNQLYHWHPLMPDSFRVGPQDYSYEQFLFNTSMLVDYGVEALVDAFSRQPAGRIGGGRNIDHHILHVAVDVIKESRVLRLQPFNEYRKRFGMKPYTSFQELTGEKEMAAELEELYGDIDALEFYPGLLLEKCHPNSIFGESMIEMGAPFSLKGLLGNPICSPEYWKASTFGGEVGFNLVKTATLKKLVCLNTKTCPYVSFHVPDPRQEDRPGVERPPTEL
pIC50: −log10 of the molar value.
The threshold is inclusive: pIC50 of exactly 5 counts as t; values below receive f.

[
  {
    "molecule": "CS(=O)(=O)c1ccc(-c2ccccc2Cc2ccccc2)cc1",
    "target-entity": "Prostaglandin G/H synthase 1 (Ovis aries, UniProt P05979)",
    "assigned-class": "f"
  },
  {
    "molecule": "Cc1ccc(S(=O)(=O)n2cc(C(=O)C(=O)N[C@@H](Cc3cnc[nH]3)C(=O)O)c3ccccc32)cc1",
    "target-entity": "Prostaglandin G/H synthase 1 (Ovis aries, UniProt P05979)",
    "assigned-class": "f"
  },
  {
    "molecule": "O=C(Nc1ccc(Cl)cc1)c1cccnc1O",
    "target-entity": "Prostaglandin G/H synthase 1 (Ovis aries, UniProt P05979)",
    "assigned-class": "f"
  },
  {
    "molecule": "CC(=O)Oc1cc(C)ccc1-c1cc(C(F)(F)F)nn1-c1ccc(S(N)(=O)=O)cc1",
    "target-entity": "Prostaglandin G/H synthase 1 (Ovis aries, UniProt P05979)",
    "assigned-class": "f"
  },
  {
    "molecule": "O=C1OCC(c2ccccc2F)=C1c1ccc(Cl)cc1",
    "target-entity": "Prostaglandin G/H synthase 1 (Ovis aries, UniProt P05979)",
    "assigned-class": "f"
  },
  {
    "molecule": "COc1ccc2c(c1)c(CC(=O)N[C@H](CO)C(C)C)c(C)n2C(=O)c1ccc(Cl)cc1",
    "target-entity": "Prostaglandin G/H synthase 1 (Ovis aries, UniProt P05979)",
    "assigned-class": "t"
  },
  {
    "molecule": "COc1ccc2cc(C(C)C(=O)NN3C(=O)C=CC3=O)ccc2c1 (centres undefined)",
    "target-entity": "Prostaglandin G/H synthase 1 (Ovis aries, UniProt P05979)",
    "assigned-class": "f"
  },
  {
    "molecule": "O=C1COCCN1c1ccc(Nc2nc(Cl)nc(NC3CCCCC3)n2)cc1",
    "target-entity": "Prostaglandin G/H synthase 1 (Ovis aries, UniProt P05979)",
    "assigned-class": "f"
  },
  {
    "molecule": "CS(=O)(=O)c1ccc(-c2noc(N)c2-c2ccc(F)cc2)cc1",
    "target-entity": "Prostaglandin G/H synthase 1 (Ovis aries, UniProt P05979)",
    "assigned-class": "f"
  },
  {
    "molecule": "Cc1nn(-c2ccccc2)c2c1c(O)nc1ccc([N+](=O)[O-])cc12",
    "target-entity": "Prostaglandin G/H synthase 1 (Ovis aries, UniProt P05979)",
    "assigned-class": "t"
  },
  {
    "molecule": "CCSC[C@@H]1C[C@](O)(c2ccccc2)[C@@H](c2ccccc2)[C@H](c2ccc(Br)cc2)O1 (relative stereo)",
    "target-entity": "Prostaglandin G/H synthase 1 (Ovis aries, UniProt P05979)",
    "assigned-class": "f"
  },
  {
    "molecule": "Cc1ccc(S(=O)(=O)n2cc(C(=O)C(=O)NCC(=O)O)c3ccccc32)cc1",
    "target-entity": "Prostaglandin G/H synthase 1 (Ovis aries, UniProt P05979)",
    "assigned-class": "f"
  },
  {
    "molecule": "CC(=O)Nc1ccc(/C(=C\\c2ccc(S(C)(=O)=O)cc2)C(=O)OCO/N=[N+](/[O-])N2CCCC2)cc1",
    "target-entity": "Prostaglandin G/H synthase 1 (Ovis aries, UniProt P05979)",
    "assigned-class": "f"
  },
  {
    "molecule": "CSc1ccc(-c2cc(C(F)(F)F)nn2-c2ccc(S(N)(=O)=O)c(CO)c2)cc1",
    "target-entity": "Prostaglandin G/H synthase 1 (Ovis aries, UniProt P05979)",
    "assigned-class": "f"
  },
  {
    "molecule": "COc1c(C(C)(C)C)cc(-c2nnc(SC)s2)cc1C(C)(C)C",
    "target-entity": "Prostaglandin G/H synthase 1 (Ovis aries, UniProt P05979)",
    "assigned-class": "t"
  },
  {
    "molecule": "COc1c(-c2cc(-c3cccnc3)nn2-c2ccc(S(N)(=O)=O)cc2)c(O)c(OC)c2occc12",
    "target-entity": "Prostaglandin G/H synthase 1 (Ovis aries, UniProt P05979)",
    "assigned-class": "f"
  },
  {
    "molecule": "CC(C)(C)c1cc(-c2nsc(NC#N)n2)cc(C(C)(C)C)c1O",
    "target-entity": "Prostaglandin G/H synthase 1 (Ovis aries, UniProt P05979)",
    "assigned-class": "f"
  },
  {
    "molecule": "CC(C)(C(=O)O)C1=C/C(=C\\c2ccc(-c3ccccc3)cc2)c2ccc(F)cc21",
    "target-entity": "Prostaglandin G/H synthase 1 (Ovis aries, UniProt P05979)",
    "assigned-class": "t"
  },
  {
    "molecule": "CC(C)=CCOc1ccc(/C=C/C(=O)O)cc1",
    "target-entity": "Prostaglandin G/H synthase 1 (Ovis aries, UniProt P05979)",
    "assigned-class": "f"
  },
  {
    "molecule": "COc1ccc([C@@H]2CC(c3sc(-c4ccccc4)nc3C)=NN2c2ccc(S(C)(=O)=O)cc2)cc1",
    "target-entity": "Prostaglandin G/H synthase 1 (Ovis aries, UniProt P05979)",
    "assigned-class": "t"
  },
  {
    "molecule": "C=CCOc1cccc2c1C(=O)c1c(OCC=C)cc(C)cc1C2=O",
    "target-entity": "Prostaglandin G/H synthase 1 (Ovis aries, UniProt P05979)",
    "assigned-class": "f"
  },
  {
    "molecule": "O=C(/C(=C/c1ccc(O)cc1)C(=O)C(F)(F)F)c1ccc(Cl)cc1",
    "target-entity": "Prostaglandin G/H synthase 1 (Ovis aries, UniProt P05979)",
    "assigned-class": "f"
  },
  {
    "molecule": "CSc1nc2ccccc2n1-c1csc(NC(=O)c2ccc(Cl)cc2)n1",
    "target-entity": "Prostaglandin G/H synthase 1 (Ovis aries, UniProt P05979)",
    "assigned-class": "t"
  },
  {
    "molecule": "CCCC/C(=C(\\c1ccccc1)c1ccc(O)cc1)c1ccc(S(C)(=O)=O)cc1",
    "target-entity": "Prostaglandin G/H synthase 1 (Ovis aries, UniProt P05979)",
    "assigned-class": "f"
  },
  {
    "molecule": "COc1cc2occc2c(OC)c1-c1cc(-c2ccccc2)n(-c2ccc(S(N)(=O)=O)cc2)n1",
    "target-entity": "Prostaglandin G/H synthase 1 (Ovis aries, UniProt P05979)",
    "assigned-class": "f"
  },
  {
    "molecule": "N[C@@H](Cc1cn(-c2nc(Cl)nc(N3CCOCC3)n2)c2ccccc12)C(=O)O",
    "target-entity": "Prostaglandin G/H synthase 1 (Ovis aries, UniProt P05979)",
    "assigned-class": "t"
  },
  {
    "molecule": "O=C(O)Cn1c2c(c3cc(F)cc(Cl)c31)CN(C(=O)c1cccc3ccccc13)CC2",
    "target-entity": "Prostaglandin G/H synthase 1 (Ovis aries, UniProt P05979)",
    "assigned-class": "f"
  },
  {
    "molecule": "CS(=O)(=O)c1ccc([C@@H]2[C@H](Oc3ccccc3)C(=O)N2C2CCCCC2)cc1 (relative stereo)",
    "target-entity": "Prostaglandin G/H synthase 1 (Ovis aries, UniProt P05979)",
    "assigned-class": "f"
  },
  {
    "molecule": "CS(=O)(=O)c1ccc(-c2[nH]c(I)c(I)c2-c2ccc(F)cc2)cc1",
    "target-entity": "Prostaglandin G/H synthase 1 (Ovis aries, UniProt P05979)",
    "assigned-class": "f"
  },
  {
    "molecule": "COc1ccc2c(c1)c(CC(=O)OCO/N=[N+](\\[O-])N1CCCC1)c(C)n2C(=O)c1ccc(Cl)cc1",
    "target-entity": "Prostaglandin G/H synthase 1 (Ovis aries, UniProt P05979)",
    "assigned-class": "f"
  },
  {
    "molecule": "Cc1ccc(-c2c(Cl)c(CO[N+](=O)[O-])nn2-c2ccc(S(N)(=O)=O)cc2)cc1",
    "target-entity": "Prostaglandin G/H synthase 1 (Ovis aries, UniProt P05979)",
    "assigned-class": "f"
  },
  {
    "molecule": "COc1ccc2c(c1)c(CC(=O)NN1CCC[C@@H]1CO)c(C)n2C(=O)c1ccc(Cl)cc1",
    "target-entity": "Prostaglandin G/H synthase 1 (Ovis aries, UniProt P05979)",
    "assigned-class": "f"
  },
  {
    "molecule": "C#Cc1cccc(Nc2ncnc3cc(OCCOC)c(OCCOC)cc23)c1",
    "target-entity": "Prostaglandin G/H synthase 1 (Ovis aries, UniProt P05979)",
    "assigned-class": "f"
  }
]
